Cited source for all entries: patent US11396505B2

Biological target: CaMKK2 (Homo sapiens)
Test: CaMKK1/2 biochemical assay, 32P radiometric kinase assay (CaMKK2)
Settings: 0.2 μM compound; read-out: CaMKK2 % inhibition @ concentrations shown, 0.2 μM
observation.type: inhibition at 0.2 µM (%)

> print(dat)
                                   compound    experimental.system  value.unit  value
1  O=C1OCCN1c1ccc2[nH]nc(/C=C/c3ccccn3)c2c1 [Example 4]  CaMKK2 (Homo sapiens)           %     55

[I] COc1ccc2cc(-c3n[nH]c4ccc(N5CCOC5=O)cc34)[nH]c2c1 [Example 19]
[II] O=C1CCCN1c1ccc2[nH]nc(-c3cc4ccccc4[nH]3)c2c1 [Example 42]
query: Between I and II , which one shows the smaller inhibition at 0.2 µM number? In your reply, give the label of the chosen option.
result: II
(II: 56%, I: 87%)
